B1: KCNG1 (parent)
chain: AVNLSVSTLPSLREEEEQVRAHAP

variants of: B1; assay: protein stability index of a GFP-peptide fusion (GPS, HEK-293T) (PSI 1-6); higher = more stable; details: c terminus: a fixed tail appended;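 further: lentivirally expressed fusions sorted by FACS into six bins by GFP to DsRed ratio, PSI derived from sequencing read proportions per bin multiplied by bin number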
readout: protein stability index

variant_notation: N3D
numeric_result: 5.26

variant_notation: A1C
numeric_result: 5

variant_notation: A23L
numeric_result: 5.02

variant_notation: R13S
numeric_result: 5.2

variant_notation: R20K
numeric_result: 5.17

variant_notation: E17V
numeric_result: 4.38

variant_notation: N3V
numeric_result: 3.06

variant_notation: S5W
numeric_result: 3.31

variant_notation: H22A
numeric_result: 5.11

variant_notation: S5C
numeric_result: 4.65

variant_notation: V2D
numeric_result: 5.64

variant_notation: L12T
numeric_result: 5.38

variant_notation: R13C
numeric_result: 4.99

variant_notation: L4W
numeric_result: 4.45

variant_notation: S5K
numeric_result: 4.47

variant_notation: H22F
numeric_result: 4.49

variant_notation: R13T
numeric_result: 5.25

variant_notation: S7Y
numeric_result: 4.19

variant_notation: L4M
numeric_result: 5.05

variant_notation: V19S
numeric_result: 5.33

variant_notation: V2P
numeric_result: 5.57

variant_notation: R20N
numeric_result: 5.3
